Target: T1, CD137-hisFc fusion protein (Sino Biological Cat 10041-H03H) (human, UniProt Q07011 24-186)
T1 construct: Bought; also called recombinant human CD137 (fused with human Fc and His tag); not shown: His tag and human Fc
Test: BLI Octet, Fab
measurement kind: Kd (nM)
Give the quantity in nM, number only.

Fab 7078 (Fab, V domains shown, Fab from E. coli; also called VH41/VL41) VH: EVQLVESGGGLVQPGGSLRLSCAASGFSLSTGGVGVGWIRQAPGKGLEWVSYISGDGDTTYYADSVKGRFTISRDNSKNTLYLQLNSLRAEDTAVYYCAREGSDTVAGDWFAYWGQGTLVTVSS VL: DIQLTQSPSSLSASVGDRVTITCRASQGISSYLAWYQQKPGKAPKLLIYDASNLETGVPSRFSGSGSGTDFTLTISSLQPEDFATYYCQQYYTTPLTFGQGTKVEIKR	25.2

IN: GET /values?readout=Kd&item= Fab 7090 (Fab, V domains shown, Fab from E. coli; also called VH47/VL47) VH: EVQLVESGGGLVQPGGSLRLSCAASGFSLSTGGVGVAWIRQAPGKGLEWVSYISGYGGTTYYADSVKGRFTISRDNSKNTLYLQLNSLRAEDTAVYYCAREGSTAVLGDWFAYWGQGTLVTVSS VL: DIQLTQSPSSLSASVGDRVTITCRASQGISSYLAWYQQKPGKAPKLLIYDASNLETGVPSRFSGSGSGTDFTLTISSLQPEDFATYYCQQYYSTPLTFGQGTKVEIKR
OUT: 55.5

IN: GET /values?readout=Kd&item= Fab 7088 (Fab, V domains shown, Fab from E. coli; also called VH46/VL46) VH: EVQLVESGGGLVQPGGSLRLSCAASGFSLSTSGVGVGWIRQAPGKGLEWVSYISGDGGSTYYADSVKGRFTISRDNSKNTLYLQLNSLRAEDTAVYYCAREGSTAVVGDWFAYWGQGTLVTVSS VL: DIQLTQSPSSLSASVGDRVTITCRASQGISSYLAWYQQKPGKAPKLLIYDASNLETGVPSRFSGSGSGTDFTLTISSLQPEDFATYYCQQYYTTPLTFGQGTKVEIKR
OUT: 43.6
